Test system: MDA-MB-231 breast
Assay: NCI tumour cell line growth inhibition, 48 h

{"compound": "CN(CCCNC(=O)c1cn(C)c2c1ccc1cc(Cl)c(Cl)cc12)CCCNC(=O)c1cn(C)c2c1ccc1cc(Cl)c(Cl)cc12", "TGI": "29.8 µM"}
{"compound": "C=C1C(=O)O[C@@H]2C(=O)[C@@H](C)[C@@H]3C=CC(=O)[C@@]3(C)[C@@H](OC(=O)/C(C)=C\\C)[C@H]12", "TGI": "3.6 µM"}
{"compound": "CCCCCCCC/C=C\\CCCCCCC(F)C(=O)O (configuration not stated)", "TGI": "> 12.5 µM"}
{"compound": "O=[n+]1c2c(n([O-])c3ccccc31)-c1cccc3cccc-2c13", "TGI": "> 100 µM"}
{"compound": "C=C1C(=O)O[C@H]2[C@H]1CC/C(Cn1cc(Cn3ccc4ccccc43)nn1)=C\\CC[C@@]1(C)O[C@@H]21", "TGI": "2.84 µM"}
{"compound": "OCC1OC(Oc2cc(O)cc(/C=C\\c3ccc(O)cc3)c2)C(O)C(O)C1O (configuration not stated)", "TGI": "> 100 µM"}
{"compound": "Cn1ncc2c(/N=C/c3cccs3)[nH]c(=S)nc21", "TGI": "> 67.5 µM"}
{"compound": "CCC(C)C1NC(=O)C2CCCN2C(=O)C(CC2CO2)OC(=O)CCNC(=O)C(C)N(C)C(=O)C(C(C)C)N(C)C1=O (configuration not stated)", "TGI": "> 100 µM"}
{"compound": "O=C(O)c1ccc2c(c1Nc1ccccc1)C(=O)c1ccccc1C2=O", "TGI": "> 100 µM"}
{"compound": "C=CC1ON(C)CCc2cc(OC)c(OC)cc21 (configuration not stated)", "TGI": "> 100 µM"}
{"compound": "Oc1c2cc(Br)cc1CCc1cc(Br)cc(c1O)CC2", "TGI": "41.4 µM"}
{"compound": "N[C@H]1CCN(c2c(F)cc3c(=O)c(C(=O)O)cn4c3c2Oc2cc3c(ccc5ccccc53)cc2-4)C1", "TGI": "0.864 µM"}
{"compound": "CC(=O)OC1CC(O)CC2=CCC3C4CCC(C(C)(O)C(O)CC5COC(=O)C5C)C4(C)CCC3C21C (configuration not stated)", "TGI": "> 25 µM"}
{"compound": "Cc1cc(O)c(C(c2cccnc2)c2c(O)cc(C)[nH]c2=O)c(=O)[nH]1", "TGI": "> 100 µM"}
{"compound": "CC1(C)CC(=O)C2=C(C1)NC(SSC1=C(C#N)C(c3ccc(F)cc3)C3=C(CC(C)(C)CC3=O)N1)=C(C#N)C2c1ccc(F)cc1 (configuration not stated)", "TGI": "51.7 µg/mL"}
{"compound": "CC(NC(=O)C(N)Cc1ccc(O)cn1)C(=O)O (configuration not stated)", "TGI": "> 100 µM"}
{"compound": "O=C1CCCC2=C(N1)C(=O)C=CC2=O", "TGI": "33.5 µM"}
{"compound": "O=c1cc(-c2ccc(Cl)cc2)[nH]c2ncccc12", "TGI": "> 100 µM"}
{"compound": "CSC(=NCCCCN=C(NS(=O)(=O)c1ccc(Cl)cc1)SC)NS(=O)(=O)c1ccc(Cl)cc1", "TGI": "> 100 µM"}
{"compound": "Cc1cccc2c(N=Nc3ccc(S(N)(=O)=O)cc3)c(O)[nH]c12", "TGI": "> 25 µM"}
{"compound": "COC(=O)C1=NN2c3ccccc3C(=O)OCCC2(C)C1 (configuration not stated)", "TGI": "> 100 µM"}
{"compound": "CCOC(=O)CC(=O)C(=O)NNC1=NCCCN1", "TGI": "> 100 µM"}
